Readings of TGI for the listed compounds
system: RPMI-8226 leukemia; test: NCI tumour cell line growth inhibition, 48 h

# example entries with known answers
[ask] Using known records, supply TGI for COc1ccc2c(c1)c(=O)c1c(NCCN(C)C)ccc3c(=O)n(CCN(C)C)c(=O)n2c31
[reply] 0.3 µM

[ask] Using known records, supply TGI for CCOc1cc2c[n+](C)c3c4cc(OC)c(OC)cc4ccc3c2cc1OC
[reply] > 100 µM

[ask] Using known records, supply TGI for O=C(OCCN=C1c2ccccc2CCc2ccccc21)c1ccccc1
[reply] 34.2 µM

[ask] Using known records, supply TGI for Cc1ccc(O)c(N=Nc2ccc(S(=O)(=O)O)cc2)n1
[reply] > 100 µM

[ask] Using known records, supply TGI for Cc1cc(C)c(C#N)c(SC(=S)NC(=O)c2ccc(Cl)cc2)n1
[reply] > 100 µM

[ask] Using known records, supply TGI for c1cc(-c2ccsc2-c2ccsc2)cs1
[reply] > 100 µM

Further cases:
[ask] Using known records, supply TGI for COc1cc(O)c2c(=O)c(OC)c(-c3ccc(OC)c(OC)c3)oc2c1.[Co]
[reply] > 100 µM
